Data provenance is paper PMC10397247.

# study-system: T1, P9-AA
# T1 chain: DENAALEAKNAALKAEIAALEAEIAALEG
# assay-comment: two-hybrid library CCmax;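 note: natural log of median RNA to DNA barcode read ratio; higher means stronger binding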
# cond: mean of both orientations
Parameter: interaction score. Scope: all listed entries.
Please respond with just the number, no unit label.

Completed entries (count: 6):
binder: DELAAIEAEIAALEAKKAALKAKNAALKG [AP3-AA]
value-reported: -1.41

binder: DKIAALKAKNAALKAEIAALEAKNAALKG [4H3016-AA]
value-reported: -0.637

binder: DEIAALEAKNAALKAELAAIEAKIAAKKG [AP5-AA]
value-reported: -0.644

binder: DEIAALEAKIAALKAENAALEAENAALEG [O3-AA]
value-reported: -0.88

binder: DKIAALKAKIAALKAENAALEAENAALEG [P4-AA]
value-reported: -1.18

binder: DENAALEAEIAALEAEIAALEAKNAALKG [P11-AA]
value-reported: -1.18

Query block: If you can, please state the reported interaction score value of DELAANEAELAAEEAKLAAAKAKAAALKG [AP4-AA] .
Result block: -1.6

Query block: I would be grateful if you could share the reported interaction score for DEIAALEAENAALEAKIAALKAENAALEG [4H171-AA] .
Result block: -0.774

Query block: Fill blank: measured interaction score of the binder DKLAAAKAEIAALEAELAANEAKKAALKG [AP8-AA] is ____.
Result block: -0.718

Query block: # lookup: interaction score of DENAALEAEIAALEAKNAALKAEIAALEG [O5-AA]
Result block: -1.56

Query block: Item DENAALEAEIAALEAENAALEAKIAALKG [O14-AA] has what recorded interaction score?
Result block: -1.61

Query block: Which interaction score is reported for this binder? DKIAALKAENAALEAKIAALKAENAALEG [P8-AA]
Result block: -0.207

Query block: Quick one: interaction score of DEIAALEAEIAALEAKNAALKAKNAALKG [P3-AA] ?
Result block: -1.38

Query block: Could you share which interaction score value was measured for DEIAALEAENAALEAEIAALEAKNAALKG [O8-AA] ?
Result block: -1.26

Query block: Dear colleague, I am looking for the recorded interaction score of the following binder: DEEAALEAKAAALKAELAANEAKLAAAKG [AP6-AA]
Result block: -0.901

Query block: Any idea what its interaction score is? The binder is DKIAALKAEIAALEAENAALEAENAALEG [O11-AA]
Result block: -1.22

Query block: Give its interaction score value. Item: DENAALEAKIAALKAKNAALKAEIAALEG [4H1401-AA]
Result block: -0.999

Query block: Need interaction score, item DKIAALKAKNAALKAKIAALKAENAALEG [O7-AA]
Result block: -1.37

Query block: Fill in: interaction score of DENAALEAKNAALKAKIAALKAKIAALKG [O2-AA] is ___
Result block: 0.934

Query block: Give the measured interaction score of DKIAALKAKNAALKAKNAALKAKIAALKG [P2-AA] .
Result block: -0.716
